Reference source: PubChem BioAssay (NCI)

Tested on: HL-60(TB) leukemia
Assay: NCI tumour cell line growth inhibition, 48 h
Could you please report measured TGI for the items listed next?
Write down the numeric answer in µM and omit the unit.

TGI for C=C1CC(C)(COc2ccc3c(C)c(C)c(=O)oc3c2C)OC1=O (configuration not stated) is 0.954

For "CCCCCCCCCCC(=O)CC(=O)c1c(O)cccc1O" the compound record lists TGI as 37.3

Record summary for "c1ccc2c(c1)c1c(n2CCOCCCN2CCCCC2)CCCC1" : reported TGI = 30.4

"CCOC(=O)C1=c2[nH]c3cccc4cccc(c43)n2C(=O)CC1" yielded TGI of 64

According to the records, this compound "C[C@H]1[C@H](N2CCCC2)O[Si](C(C)(C)C)(C(C)(C)C)[C@@H]1C" displays TGI of 48.5

Short answer for "CC/C=C\C/C=C\C/C=C\CCCCCCCC(=O)OC" : TGI was 49.9

Short answer for "COc1ccc2[nH]c3c(C)c4ccncc4c(C)c3c2c1" : TGI was 2.42

Short answer for CCOC(=O)C1=C(C)NC(=O)NC1c1ccc(N(CCCl)CCCl)cc1Cl (configuration not stated) : TGI was 13.4

Recorded TGI (compound "C=C(CBr)CCCOCc1ccccc1" ): 72.6
